# System: Candida albicans
# methodNotes: Antifungal activity against Candida albicans after 72 hrs by agar well diffusion method
# Format: functional
Can you tell me MIC for the items I'm about to list?
Could you give the number and then its unit, please?

## Input Reported MIC, molecule N#CSc1c(-c2ccc(Cl)cc2)nc2sc(Cc3noc4ccccc34)nn12 : ____
## Output 3 µg/mL

## Input // query MIC value for entry COc1ccc(-c2nc3sc(Cc4noc5ccccc45)nn3c2Br)cc1
## Output 4 µg/mL

## Input Any idea what MIC was measured for Brc1ccc(-c2nc3sc(Cc4noc5ccccc45)nn3c2Br)cc1 ?
## Output 2.5 µg/mL

## Input May I ask what MIC has been recorded for COc1ccc(-c2cn3nc(Cc4noc5ccccc45)sc3n2)cc1 ?
## Output 3 µg/mL

## Input Need MIC, item O=Nc1c(-c2ccc(Br)cc2)nc2sc(Cc3noc4ccccc34)nn12
## Output 2.5 µg/mL

## Input # MIC lookup, item O=[N+]([O-])c1ccc(-c2nc3sc(Cc4noc5ccccc45)nn3c2Br)cc1
## Output 4 µg/mL

## Input # query: MIC of entry N#CSc1c(-c2cc3ccccc3oc2=O)nc2sc(Cc3noc4ccccc34)nn12
## Output 3.5 µg/mL

## Input Param item = O=Nc1c(-c2cc3ccccc3oc2=O)nc2sc(Cc3noc4ccccc34)nn12 ; retrieve measured MIC.
## Output 3 µg/mL

## Input MIC for Brc1ccc(-c2cn3nc(Cc4noc5ccccc45)sc3n2)cc1 ?
## Output 2 µg/mL

## Input Request the reported MIC associated with O=Nc1c(-c2ccc(Cl)cc2)nc2sc(Cc3noc4ccccc34)nn12
## Output 3 µg/mL

## Input Given the entry Clc1ccc(-c2cn3nc(Cc4noc5ccccc45)sc3n2)cc1 , report its measured MIC.
## Output 3.5 µg/mL

## Input Look up MIC: N#CSc1c(-c2ccc(Br)cc2)nc2sc(Cc3noc4ccccc34)nn12
## Output 3 µg/mL

## Input Please look up its MIC: Clc1ccccc1C(c1ccccc1)(c1ccccc1)n1ccnc1 [CLOTRIMAZOLE]
## Output 2 µg/mL

## Input Entry under review: Nc1nnc(Cc2noc3ccccc23)s1 . Reported MIC?
## Output 3 µg/mL

## Input Name the recorded MIC for COc1ccc(-c2nc3sc(Cc4noc5ccccc45)nn3c2N=O)cc1 .
## Output 3 µg/mL

## Input Form field: reported MIC of N#CSc1c(-c2ccc([N+](=O)[O-])cc2)nc2sc(Cc3noc4ccccc34)nn12
## Output 3.5 µg/mL
